system: AKT (Homo sapiens, UniProt P31749)
Sequence (P31749 whole entry): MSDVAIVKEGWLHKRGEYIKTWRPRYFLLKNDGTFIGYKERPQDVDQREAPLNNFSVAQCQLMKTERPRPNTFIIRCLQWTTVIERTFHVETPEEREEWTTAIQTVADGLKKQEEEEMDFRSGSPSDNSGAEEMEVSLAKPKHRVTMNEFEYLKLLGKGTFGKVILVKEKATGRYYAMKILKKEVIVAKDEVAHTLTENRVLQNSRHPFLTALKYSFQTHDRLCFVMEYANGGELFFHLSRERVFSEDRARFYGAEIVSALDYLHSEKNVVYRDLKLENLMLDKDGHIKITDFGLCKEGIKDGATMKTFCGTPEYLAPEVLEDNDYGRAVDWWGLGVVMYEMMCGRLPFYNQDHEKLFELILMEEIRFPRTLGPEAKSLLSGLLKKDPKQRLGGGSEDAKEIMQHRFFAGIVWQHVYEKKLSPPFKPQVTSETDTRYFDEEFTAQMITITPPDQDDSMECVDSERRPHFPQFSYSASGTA
assay_name: RBC HotSpot kinase assay (33P-ATP, P81 filter-binding), AKT
Type: biochemical
condition_summary: Table 28, biochemical kinase assay; read-out: AKT IC50
pIC50: −log10 of the molar value.
attribute_measured: pIC50

- compound: "Cc1cc(-c2ccnc3[nH]cc(F)c23)ncc1CN"
  pIC50: 5.55
- compound: "c1ccc(CNCc2ccc(-c3ccnc4[nH]ccc34)cc2)cc1"
  pIC50: 5.61
- compound: "CNCC(=O)N1C[C@@H](C)[C@](O)(c2c(C)cc(-c3ccnc4[nH]cc(F)c34)cc2F)[C@@H](C)C1"
  pIC50: 6.24
- compound: "C[C@@H]1CNC[C@H](C)[C@@]1(O)c1c(F)cc(-c2ccnc3[nH]cc(F)c23)cc1F"
  pIC50: 6.44
- compound: "O=C1NCCc2cc(-c3ccnc4[nH]ccc34)ccc21"
  pIC50: 5.18

I: COC(=O)c1c[nH]c2nccc(-c3cc(C)c([C@@]4(O)[C@H](C)CN(C5CCS(=O)(=O)CC5)C[C@@H]4C)c(F)c3)c12
II: Cc1cc(-c2ccnc3[nH]cc(F)c23)cc(F)c1[C@@]1(O)[C@H](C)CN(C(=O)[C@@H]2C[C@@H](F)CN2)C[C@@H]1C
stdin: # argmax over pIC50 for candidates I and II Pick one; state its label.
stdout: II

1: C[C@@H]1CNC[C@H](C)[C@@]1(O)c1ccc(-c2ccnc3[nH]cc(F)c23)cc1C(F)(F)F
2: CC1(c2ccc(-c3ccnc4[nH]cc(F)c34)cc2Cl)CCNCC1
3: CC1CN(C)CC(C)C1(O)c1ccc(-c2ccnc3[nH]cc(F)c23)cc1-c1ccccc1 (stereo not drawn)
4: NCc1ccc(-c2ccnc3[nH]cc(-c4cccnc4)c23)cc1
stdin: Sort ascending by pIC50. Answer format: the labels, in the requested order.
stdout: 4, 3, 1, 2

1: Cc1cc(-c2ccnc3[nH]cc(F)c23)cc(F)c1C1(O)CC2(CNC2)C1
2: OC1(c2ccc(-c3ccnc4[nH]cc(F)c34)cc2)C[C@H]2CC[C@@H](C1)N2 (stereo partly drawn)
3: Cc1c[nH]c2nccc(-c3ccc(CN)cc3)c12
stdin: Sort ascending by pIC50. Answer format: the labels, in the requested order.
stdout: 1, 3, 2
(1: 5.90, 3: 6.20, 2: 6.41)

a: NCc1ccc(-c2ccnc3[nH]ccc23)cc1
b: Cc1cc(-c2ccnc3[nH]cc(F)c23)cc(F)c1C1(O)[C@H](C)CN(C2CCOCC2)C[C@@H]1C (stereo partly drawn)
stdin: # argmax over pIC50 for candidates a and b Pick one; state its label.
stdout: b
